# experimental setup: 1 h, pH 7.4
Counter-ions that a name gives are not always drawn.
reported metric: Percent parent compound remaining at 60 minutes in liver microsomes, Mouse (%)

• CCCC1C2CC3(C(=O)N[C@H]4CC[C@H](N)CC4)CC1CC(c1ccccc1)(C2)C3 (stereo partly drawn) [Example F3] = 26
• N[C@H]1CC[C@H](NC(=O)C23CC4CC(CCl)(C2)CC(c2ccccc2)(C4)C3)CC1 (mixture of isomers) [Example E1, hydrochloride] = 69
• N[C@H]1CC[C@H](NC(=O)C23CC4CC(c5ccccc5)(CC(C2)C4CCCl)C3)CC1 (stereo partly drawn) [Example H5] = 35
• CC1C2CC3(C(=O)N[C@H]4CC[C@H](N)CC4)CC1CC(c1ccccc1)(C2)C3 (stereo partly drawn) [Example F1] = 83
• N[C@H]1CC[C@H](NC(=O)C23CC4CC(c5ccccc5)(CC(C2)C4CCF)C3)CC1 (stereo partly drawn) [Example H4] = 39
• CCC1C2CC3(C(=O)N[C@H]4CC[C@H](N)CC4)CC1CC(c1ccccc1)(C2)C3 (stereo partly drawn) [Example F2] = 48

* * *

# experimental setup: 1 h, pH 7.4
Measured Percent parent compound remaining at 60 minutes in liver microsomes, Human of individual entries
reported metric: Percent parent compound remaining at 60 minutes in liver microsomes, Human (%)

- CC1(C)CN(C(=S)[C@@]23C[C@H]4C[C@@](C)(C2)C[C@](c2ccccc2)(C4)C3)CC[C@@H]1N: 72
- N[C@H]1CC[C@H](NC(=O)C23CC4CC(c5ccccc5)(CC(C2)C4CCF)C3)CC1 (some centres unmarked): 81
- CCC=C1C2CC3(C(=S)N[C@H]4CC[C@H](N)CC4)CC1CC(c1ccccc1)(C2)C3 (relative stereo) [Example D2]: 100
- CCCC1C2CC3(C(=O)N[C@H]4CC[C@H](N)CC4)CC1CC(c1ccccc1)(C2)C3 (some centres unmarked): 91
- CC1C2CC3(C(=O)N[C@H]4CC[C@H](N)CC4)CC1CC(c1ccccc1)(C2)C3 (some centres unmarked): 91

* * *

# experimental setup: 1 h, pH 7.4
Where a name gives a salt, the structure may show the parent alone.
reported metric: Percent parent compound remaining at 60 minutes in liver microsomes, Guinea Pig (%)

• CC1(C)CN(C(=S)[C@@]23C[C@H]4C[C@@](C)(C2)C[C@](c2ccccc2)(C4)C3)CC[C@@H]1N = 32
• N[C@H]1CC[C@H](NC(=O)C23CC4CC(Br)(C2)CC(c2ccccc2)(C4)C3)CC1 (mixture of isomers) = 96
• CC1C2CC3(C(=O)N[C@H]4CC[C@H](N)CC4)CC1CC(c1ccccc1)(C2)C3 (stereo partly drawn) = 79
• CCC1C2CC3(C(=O)N[C@H]4CC[C@H](N)CC4)CC1CC(c1ccccc1)(C2)C3 (stereo partly drawn) = 68
• CCC=C1C2CC3(C(=S)N[C@H]4CC[C@H](N)CC4)CC1CC(c1ccccc1)(C2)C3 (relative stereo) [Example D2] = 100
• CCCC1C2CC3(C(=O)N[C@H]4CC[C@H](N)CC4)CC1CC(c1ccccc1)(C2)C3 (stereo partly drawn) = 48
• N[C@H]1CC[C@H](NC(=O)C23CC4CC(c5ccccc5)(CC(C2)C4CCF)C3)CC1 (stereo partly drawn) = 80.5
• N[C@H]1CC[C@H](NC(=O)C23CC4CC(CCl)(C2)CC(c2ccccc2)(C4)C3)CC1 (mixture of isomers) [Example E1, hydrochloride] = 100
• N[C@H]1CC[C@H](NC(=O)C23CC4CC(c5ccccc5)(CC(C2)C4CCCl)C3)CC1 (stereo partly drawn) = 80.5
